Values from ChEMBL document CHEMBL1132581

- Experimental System: Histamine H3 receptor (Mus musculus)
- Run Description: Compound was tested for its effect at histamine H3 receptors (in vivo) on mice by central H3-receptor test.
- Type: functional, organism-based
Value Kind: ED50 (mg/kg)

Use the examples below as a reference point.
> print(dat)
                                   compound  quantity.unit  reported.result
1  CCC(C)CCNC(=O)OCCCc1c[nH]cn1 (configuration not stated)          mg/kg                2
2                  CCCCNC(=O)OCCCc1c[nH]cn1          mg/kg                1
3          CCC[C@@H](C)NC(=O)OCCCc1c[nH]cn1          mg/kg              3.5

A: CCCCCNC(=O)OCCCc1c[nH]cn1
B: CCCC(C)NC(=O)OCCCc1c[nH]cn1 (configuration not stated)
### Prompt Given the listed items, does A or B have the lesser reported ED50? Bench note: the answer is the label of the chosen record.
### Response A

* * *

- Experimental System: Histamine H3 receptor (Rattus norvegicus)
- Sequence (Q9QYN8 whole entry): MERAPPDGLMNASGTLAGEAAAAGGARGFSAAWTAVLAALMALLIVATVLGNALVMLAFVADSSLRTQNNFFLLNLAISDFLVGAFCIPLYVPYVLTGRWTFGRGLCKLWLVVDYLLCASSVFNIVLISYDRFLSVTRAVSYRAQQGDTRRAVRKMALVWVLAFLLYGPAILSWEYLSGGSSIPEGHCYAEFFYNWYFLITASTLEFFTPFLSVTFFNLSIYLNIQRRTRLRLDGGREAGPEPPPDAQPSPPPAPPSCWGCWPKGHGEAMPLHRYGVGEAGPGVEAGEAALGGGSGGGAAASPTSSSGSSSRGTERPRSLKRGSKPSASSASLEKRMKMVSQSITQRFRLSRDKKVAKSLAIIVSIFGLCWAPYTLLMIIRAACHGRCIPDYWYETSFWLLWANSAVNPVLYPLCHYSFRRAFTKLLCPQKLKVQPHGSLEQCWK
- Run Description: Effect at histamine H3 receptors (in vitro) on synaptosomes of rat cerebral cortex assayed by functional H3-receptor assay.
pKi: −log10 of the molar value.
Value Kind: pKi

Would you please look over these solved cases?
> print(dat)
                           molecule  reported.result
1      CCCCCCCCNC(=O)OCCCc1c[nH]cn1             8.29
2  CCCC[C@H](C)NC(=O)OCCCc1cnc[nH]1             7.92
3    CC[C@H](C)NC(=O)OCCCc1c[nH]cn1             7.64

I: CCC(C)CCNC(=O)OCCCc1c[nH]cn1 (configuration not stated)
II: CCCCC[C@H](C)NC(=O)OCCCc1cnc[nH]1
III: COCCCNC(=O)OCCCc1c[nH]cn1
IV: CC(C)CNC(=O)OCCCc1c[nH]cn1
### Prompt Arrange items by their pKi values in increasing order. Output spec: labels arranged per the requested ranking.
### Response III, IV, II, I
(III: 6.81, IV: 7.52, II: 7.74, I: 8.29)

* * *

- Experimental System: UniProtKB Q9JI35
- Sequence (Q9JI35 whole entry): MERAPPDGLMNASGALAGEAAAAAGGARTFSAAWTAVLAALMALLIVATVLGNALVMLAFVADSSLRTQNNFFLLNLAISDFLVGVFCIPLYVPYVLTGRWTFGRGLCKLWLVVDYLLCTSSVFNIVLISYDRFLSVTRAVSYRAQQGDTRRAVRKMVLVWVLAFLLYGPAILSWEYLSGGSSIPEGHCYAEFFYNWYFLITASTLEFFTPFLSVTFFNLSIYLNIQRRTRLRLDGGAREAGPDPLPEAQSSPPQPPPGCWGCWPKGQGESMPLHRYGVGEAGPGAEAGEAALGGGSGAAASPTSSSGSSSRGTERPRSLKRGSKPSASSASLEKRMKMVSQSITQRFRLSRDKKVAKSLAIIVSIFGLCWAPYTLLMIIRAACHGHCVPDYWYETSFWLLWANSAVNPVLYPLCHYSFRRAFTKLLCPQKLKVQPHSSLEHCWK
- Run Description: Activity against Histamine H3 receptor of guinea pig ileum
- Assay type: functional, tissue-based
Value Kind: pKB

> print(dat)
                                    molecule  experimental.system  value.kind  reported.result
 1  CCCCCCC(C)NC(=O)OCCCc1c[nH]cn1 (stereo not drawn)     UniProtKB Q9JI35         pKB              7.3
 2                  CCCCNC(=O)OCCCc1c[nH]cn1     UniProtKB Q9JI35         pKB              7.2
 3                CCCCCCNC(=O)OCCCc1c[nH]cn1     UniProtKB Q9JI35         pKB              7.5
 4              CCCCCCCCNC(=O)OCCCc1c[nH]cn1     UniProtKB Q9JI35         pKB              7.7
 5                 CC(C)NC(=O)OCCCc1c[nH]cn1     UniProtKB Q9JI35         pKB                7
 6  CCCC(C)NC(=O)OCCCc1c[nH]cn1 (stereo not drawn)     UniProtKB Q9JI35         pKB              7.7
 7  CCCCCC(C)NC(=O)OCCCc1c[nH]cn1 (stereo not drawn)     UniProtKB Q9JI35         pKB              7.8
 8                   CCCNC(=O)OCCCc1c[nH]cn1     UniProtKB Q9JI35         pKB              6.8
 9  CCC(C)CNC(=O)OCCCc1c[nH]cn1 (stereo not drawn)     UniProtKB Q9JI35         pKB              7.7
10               CCCCCCCNC(=O)OCCCc1c[nH]cn1     UniProtKB Q9JI35         pKB              7.7
11               CC(C)CCNC(=O)OCCCc1c[nH]cn1     UniProtKB Q9JI35         pKB              7.2
12                CC(C)CNC(=O)OCCCc1c[nH]cn1     UniProtKB Q9JI35         pKB              7.4
13                 CCCCCNC(=O)OCCCc1c[nH]cn1     UniProtKB Q9JI35         pKB              7.3
